target.of.assay: CYP1A1 (Homo sapiens, UniProt P04798)
Sequence (P04798 whole entry): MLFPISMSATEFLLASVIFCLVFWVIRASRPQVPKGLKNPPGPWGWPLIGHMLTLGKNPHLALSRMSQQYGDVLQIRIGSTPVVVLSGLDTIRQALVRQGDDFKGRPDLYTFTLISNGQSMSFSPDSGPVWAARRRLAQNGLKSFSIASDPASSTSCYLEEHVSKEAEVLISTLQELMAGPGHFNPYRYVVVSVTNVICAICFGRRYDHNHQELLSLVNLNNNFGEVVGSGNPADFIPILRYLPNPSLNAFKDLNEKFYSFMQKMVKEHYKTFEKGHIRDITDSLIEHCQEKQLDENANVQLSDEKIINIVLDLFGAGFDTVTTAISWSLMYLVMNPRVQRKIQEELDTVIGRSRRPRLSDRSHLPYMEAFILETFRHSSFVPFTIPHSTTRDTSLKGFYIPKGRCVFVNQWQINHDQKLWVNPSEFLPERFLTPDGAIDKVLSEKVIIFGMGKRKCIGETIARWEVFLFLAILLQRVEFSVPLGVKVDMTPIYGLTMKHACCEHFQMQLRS
procedure.text: Inhibition of recombinant human CYP1A1 expressed in yeast microsomal membranes at 10 uM by fluorescence assay relative to control
Type: cell membranes
Answer each item with its documented inhibition at 10 µM.
Answers are plain numbers, in %.

Consider the reported inhibition at 10 µM for these molecules:
molecule	inhibition at 10 µM [%]
O=C1C[C@@H](c2ccc(O)cc2)Oc2cc(O)ccc21 [LIQUIRTIGENIN]	19.2
CC1(C)C=Cc2c(ccc3c2OC[C@@H](c2ccc(O)cc2O)C3)O1 [GLABRIDIN]	36.8
CC(C)=CCc1cc(C2CC(=O)c3ccc(O)c(CC=C(C)C)c3O2)ccc1O (centres undefined)	67.2
COc1ccc(C2COc3c(ccc4c3C=CC(C)(C)O4)C2)c(O)c1 (centres undefined)	29.6
O=c1c(O)c(-c2ccc(O)c(O)c2)oc2cc(O)cc(O)c12 [QUERCETIN]	31.5
O=C(/C=C/c1ccc(O)cc1)c1ccc(O)cc1O [ISOLIQUIRITIGENIN]	22.3

List the reported inhibition at 10 µM of each molecule below.
1. CC1(C)[C@@H](O[C@H]2O[C@H](C(=O)O)[C@@H](O)[C@H](O)[C@H]2O[C@@H]2O[C@H](C(=O)O)[C@@H](O)[C@H](O)[C@H]2O)CC[C@]2(C)[C@H]3C(=O)C=C4[C@@H]5C[C@@](C)(C(=O)O)CC[C@]5(C)CC[C@@]4(C)[C@]3(C)CC[C@@H]12 [GLYCYRRHIZIN]
2. CC1(C)[C@@H](O)CC[C@]2(C)[C@H]3C(=O)C=C4[C@@H]5C[C@@](C)(C(=O)O)CC[C@]5(C)CC[C@@]4(C)[C@]3(C)CC[C@@H]12 [ENOXOLONE]
3. COc1ccc(-c2coc3cc(O)ccc3c2=O)cc1 [FORMONONETIN]

[39, 11.4, 10.8]

* * *

target.of.assay: Cytochrome P450 1B1 (Homo sapiens, UniProt Q16678)
Sequence (Q16678 whole entry): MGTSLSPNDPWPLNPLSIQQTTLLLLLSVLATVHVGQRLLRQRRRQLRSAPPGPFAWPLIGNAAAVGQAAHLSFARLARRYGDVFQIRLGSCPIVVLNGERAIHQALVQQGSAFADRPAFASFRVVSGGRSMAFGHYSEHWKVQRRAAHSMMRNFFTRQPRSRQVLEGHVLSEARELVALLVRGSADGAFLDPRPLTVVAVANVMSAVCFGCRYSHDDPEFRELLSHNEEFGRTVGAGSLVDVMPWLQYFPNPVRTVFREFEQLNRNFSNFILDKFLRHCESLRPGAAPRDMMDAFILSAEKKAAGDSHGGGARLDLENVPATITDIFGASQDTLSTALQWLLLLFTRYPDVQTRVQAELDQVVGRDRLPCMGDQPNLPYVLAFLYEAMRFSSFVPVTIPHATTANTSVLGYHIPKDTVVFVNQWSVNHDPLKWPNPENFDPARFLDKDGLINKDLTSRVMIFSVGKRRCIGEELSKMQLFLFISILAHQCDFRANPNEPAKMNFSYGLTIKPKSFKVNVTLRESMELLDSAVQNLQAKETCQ
procedure.text: Inhibition of human CYP1B1 expressed in HEK293 cells by fluorescence assay
Format: cell-based
property.name: pIC50
One number for each entry, as −log10 of the molar value.

Using the record for CC(C)=CCc1cc(C2CC(=O)c3ccc(O)c(CC=C(C)C)c3O2)ccc1O (stereo unspecified) , state its measured pIC50.
4.82
